- Tested on: Angiotensin II (AII) vasopressor response
- PROTOCOL_DETAILS: AII Challenge: antagonism of angiotensin II vasopressor response in conscious spontaneously hypertensive rats
- Assay type: in vivo, rat (male okamoto-Aoki SHR)
- STUDY_CONDITIONS: Rattus norvegicus, iv, 1 h, SHR n=2; 3 mg/kg I.V.; AII 0.05 mcg/kg IV; 60 min post dose; read-out: Inhibition
MEASURED_ENDPOINT: inhibition in vivo at 3 mg/kg

>>> result("CCCCc1nc2ccc([C@H]3[C@@H]4CCCCCC[C@@H]4ON3C)cc2c(=O)n1Cc1ccc(-c2ccccc2-c2nnn[nH]2)cc1 (relative stereo)")
"80%"
>>> result("CCCCc1nc2ccc([C@H]3[C@@H]4C(=O)CC[C@@H]4ON3C)cc2c(=O)n1Cc1ccc(-c2ccccc2-c2nnn[nH]2)cc1 (relative stereo)")
"100%"
>>> result("CCCCc1nc2ccc(C3CC4CCCCN3O4)cc2c(=O)n1Cc1ccc(-c2ccccc2-c2nnn[nH]2)cc1 (stereo not drawn)")
"53%"

* * *

Listing of entries alongside the reported Average Change.
- Test system: Angiotensin II (AII) vasopressor response
- PROTOCOL_DETAILS: AII Challenge: antagonism of angiotensin II vasopressor response in conscious spontaneously hypertensive rats
- Assay type: in vivo, rat (male okamoto-Aoki SHR)
- STUDY_CONDITIONS: SHR n=2; 5 mg/kg P.O.; AII 0.05 mcg/kg IV; 90 min post dose
MEASURED_ENDPOINT: Average Change (mmHg)

>>> readout_number("CCCCc1nc2ccc([C@H]3[C@@H]4C(=O)OC[C@@H]4ON3C)cc2c(=O)n1Cc1ccc(-c2ccccc2-c2nnn[nH]2)cc1 (relative stereo) [Example 53]")
5
>>> readout_number("CCCCc1nc2ccc([C@H]3[C@@H]4CCC[C@@H]4ON3C)cc2c(=O)n1Cc1ccc(-c2ccccc2-c2nnn[nH]2)cc1 (relative stereo) [Example 50]")
20
>>> readout_number("CCCCc1nc2ccc([C@H]3[C@@H]4C(=O)CC[C@@H]4ON3C)cc2c(=O)n1Cc1ccc(-c2ccccc2-c2nnn[nH]2)cc1 (relative stereo) [Example 48]")
8.5
>>> readout_number("CCCCc1nc2ccc([C@@H]3[C@H]4C(=O)CCC[C@H]4ON3C)cc2c(=O)n1Cc1ccc(-c2ccccc2-c2nnn[nH]2)cc1 (relative stereo) [Example 49]")
15

* * *

- Test system: Angiotensin II (AII) vasopressor response
- PROTOCOL_DETAILS: AII Challenge: antagonism of angiotensin II vasopressor response in conscious spontaneously hypertensive rats
- Assay type: in vivo, rat (male okamoto-Aoki SHR)
- STUDY_CONDITIONS: SHR n=2; 5 mg/kg P.O.; AII 0.05 mcg/kg IV; 60 min post dose
Listing of entries alongside the reported Average Change.
MEASURED_ENDPOINT: Average Change (mmHg)

>>> readout_number("CCCCc1nc2ccc([C@H]3[C@@H]4CCC[C@@H]4ON3C)cc2c(=O)n1Cc1ccc(-c2ccccc2-c2nnn[nH]2)cc1 (relative stereo) [Example 50]")
22.5
>>> readout_number("CCCCc1nc2ccc([C@H]3[C@@H]4C(=O)OC[C@@H]4ON3C)cc2c(=O)n1Cc1ccc(-c2ccccc2-c2nnn[nH]2)cc1 (relative stereo) [Example 53]")
7.5
>>> readout_number("CCCCc1nc2ccc([C@@H]3[C@H]4C(=O)CCC[C@H]4ON3C)cc2c(=O)n1Cc1ccc(-c2ccccc2-c2nnn[nH]2)cc1 (relative stereo) [Example 49]")
14
>>> readout_number("CCCCc1nc2ccc([C@H]3[C@@H]4C(=O)CC[C@@H]4ON3C)cc2c(=O)n1Cc1ccc(-c2ccccc2-c2nnn[nH]2)cc1 (relative stereo) [Example 48]")
10
